Data provenance is ChEMBL document CHEMBL4219141.

System: HEK-293T
test summary: Toxicity in HEK293T cells at 10 uM
Assay type: cell-based
setup conditions: human
attribute measured: Activity

# smiles structure, obs value
measured = [
    ("COc1ccccc1C(=O)c1sc(N)nc1-c1cc(Br)cc(C(F)(F)F)c1", "Non-Toxic"),
    ("Nc1nc(-c2cccc(Cl)c2)c(C(=O)c2ccccc2Cl)s1", "Non-Toxic"),
    ("CCS(=O)(=O)c1ccc(CC(=O)Nc2nc(-c3ccccc3Cl)c(C(=O)c3ccccc3Cl)s2)cc1", "Non-Toxic"),
    ("COc1ccccc1C(=O)c1sc(N)nc1-c1ccc(Cl)c(C(F)(F)F)c1", "Non-Toxic"),
    ("Nc1nc(-c2cc(Br)cc(C(F)(F)F)c2)c(C(=O)c2ccccc2Cl)s1", "Non-Toxic"),
]

###

subject of test: Nuclear receptor ROR-alpha (Homo sapiens)
Sequence (whole entry): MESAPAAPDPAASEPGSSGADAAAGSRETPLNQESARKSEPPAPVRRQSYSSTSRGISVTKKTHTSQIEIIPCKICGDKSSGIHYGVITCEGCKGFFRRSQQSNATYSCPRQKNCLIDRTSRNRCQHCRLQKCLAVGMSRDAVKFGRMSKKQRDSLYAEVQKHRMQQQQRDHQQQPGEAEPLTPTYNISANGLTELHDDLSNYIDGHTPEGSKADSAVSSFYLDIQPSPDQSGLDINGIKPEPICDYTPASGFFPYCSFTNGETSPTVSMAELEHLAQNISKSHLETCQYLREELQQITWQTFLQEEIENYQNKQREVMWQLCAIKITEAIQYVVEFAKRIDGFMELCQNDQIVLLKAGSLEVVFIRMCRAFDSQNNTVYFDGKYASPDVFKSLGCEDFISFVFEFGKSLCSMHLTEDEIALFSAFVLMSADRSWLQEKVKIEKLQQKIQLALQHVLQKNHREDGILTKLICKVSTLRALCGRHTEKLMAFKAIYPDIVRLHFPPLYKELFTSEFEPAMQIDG
test summary: Inverse agonist activity at GAL4-DNA binding domain-fused human RORalpha ligand binding domain expressed in HEK293T cells incubated for 20 hrs by luciferase reporter gene assay
Type: cell-based
Calls of active or inactive are those of the source. The calls are words filed in the database; no cut-off is given here.

# smiles structure, Activity
data = [
    ("Nc1nc(-c2cccc(Cl)c2)c(C(=O)c2ccccc2Cl)s1", "inactive"),
    ("COc1ccccc1C(=O)c1sc(N)nc1-c1cc(Br)cc(C(F)(F)F)c1", "inactive"),
    ("COc1ccccc1C(=O)c1sc(N)nc1-c1ccc(Cl)c(C(F)(F)F)c1", "inactive"),
    ("Nc1nc(-c2cc(Br)cc(C(F)(F)F)c2)c(C(=O)c2ccccc2Cl)s1", "inactive"),
]

###

test summary: Half life in mouse liver microsomes at 1 uM in presence of NADPH by LC-MS/MS analysis
Type: ADME, microsome

# smiles structure, unit abbrev, t1/2
records = [
    ("Nc1nc(-c2cc(C(F)(F)F)cc(C(F)(F)F)c2)c(C(=O)c2ccccc2Cl)s1", "min", 7.4),
    ("COc1ccccc1C(=O)c1sc(N)nc1-c1cc(Br)cc(C(F)(F)F)c1", "min", 2.3),
    ("Nc1nc(-c2cc(Cl)cc(C(F)(F)F)c2)c(C(=O)c2ccccc2Cl)s1", "min", 6.1),
    ("COc1ccccc1C(=O)c1sc(N)nc1-c1cc(C(F)(F)F)cc(C(F)(F)F)c1", "min", 5.2),
    ("Nc1nc(-c2cccc(C(F)(F)F)c2)c(C(=O)c2ccccc2Cl)s1", "min", 2.9),
    ("Nc1nc(-c2cccc(Cl)c2)c(C(=O)c2ccccc2Cl)s1", "min", 1.9),
    ("CCS(=O)(=O)c1ccc(CC(=O)Nc2nc(-c3ccccc3Cl)c(C(=O)c3ccccc3Cl)s2)cc1", "min", 34),
    ("Nc1nc(-c2cc(Br)cc(C(F)(F)F)c2)c(C(=O)c2ccccc2Cl)s1", "min", 5.2),
    ("Nc1nc(-c2cccc(C(F)(F)F)c2)c(C(=O)c2c(F)cccc2Cl)s1", "min", 2.7),
    ("Nc1nc(-c2ccc(Br)c(C(F)(F)F)c2)c(C(=O)c2ccccc2Cl)s1", "min", 2.5),
]
